- experiment_summary: blockers of mitochondrial fusion, WT vs mutant – cell-based, chemical genetic, wild-type and mutant, confirmation (AID 1361)
- condition_parameters: Cell-based mitochondrial fusion phenotype, imaging, WT cells
Active and inactive are the calls of the source. No rule for the calls is given here.
Your answer must be one of the following: Y (active), N (inactive)

Outcome? Cc1ccc(-c2nnc(SCC(=O)N3CCOCC3)nc2-c2ccc(C)cc2)cc1
N

Check CCCCCOC(=O)c1ccc(NC(=O)c2ccco2)cc1 too.
N

Okay, and NC(=O)c1ccc(NC(=O)COC(=O)c2c3c(nc4ccccc24)/C(=C\c2ccc4c(c2)OCO4)CCC3)cc1 ?
Y

Now the same for CCCCCc1nc2sc3c(c2c(=O)n1NC(=O)c1ccc([N+](=O)[O-])cc1)CC(C)(C)OC3
Y

CCN1CCN(c2ccc(NC(=O)c3ccc4c(c3)OCO4)cc2)CC1 ?
N

Now consider CCOc1ccccc1NC(C)C(=O)Nc1cc(C(F)(F)F)ccc1N1CCOCC1 (configuration not stated) .
Y

Same question for COc1cc2c(cc1NC(=O)CSc1nc3ccccc3[nH]1)oc1ccccc12 please.
Y

Same thing, different molecule: COc1cc(/C=N/n2cnnc2)ccc1OCc1ccccc1
N

And the next one, Cc1cc(=O)[nH]c(SCC(N)=O)c1C#N ?
N

Moving on to O=C(NCCCN1CCOCC1)c1ccccc1-c1ccccc1
N

Try the molecule O=C(CSc1ncn[nH]1)NCc1ccccc1
N

Continue with Cc1ccc(OCCSc2nc(NC(C)C)nc(NC(C)C)n2)cc1
Y

// query: O=C(Nc1cc(S(=O)(=O)N2CCCCC2)ccc1Cl)c1ccccc1NS(=O)(=O)c1ccc(F)cc1
Y

Try this molecule next: CCOCCCNC(=S)N1CCCN(c2nc3c(C)c(C)ccc3cc2C#N)CC1
Y

Field entry: O=C(O)C1CCCCC1C(=O)Nc1ccc(F)cc1F (configuration not stated)
N

Continue with COc1ccc(N2CCN(CCNC(=O)c3nnc(Cc4c(F)cccc4Cl)o3)CC2)cc1
N

# iterate: CC(C)COC(=O)c1cccc2c1-c1ccccc1/C2=N\O
N

Next entry: COc1cccc(C2=CC(c3ccccc3)n3nnnc3N2)c1 (configuration not stated)
N

What about this molecule? Cc1sc(NC(=O)c2ccco2)c(C(c2ccc(F)cc2)N2CCN(C)CC2)c1C (configuration not stated)
N

Please give the result for CCn1ccnc1CN1CCc2c([nH]c3ccccc23)C1C1CCCCC1 (configuration not stated) too.
Y

Another molecule to look at: CCN1CCc2nc(NC(=O)c3ccccc3)sc2C1
N

Consider next the molecule CCC(=O)N1CCN(c2ccccc2NC(=O)COc2cc(C)ccc2C(C)C)CC1 in the same way.
N

====

- experiment_summary: blockers of mitochondrial fusion, WT vs mutant – cell-based, chemical genetic, wild-type and mutant, confirmation (AID 1361)
- condition_parameters: Cell-based mitochondrial fusion phenotype, imaging, WT cells
Active and inactive are the calls of the source. The rule behind the calls is not given here.
Log the outcome using a class from active, inactive

Hello, I am checking results. What call was entered for COC(=O)c1c(N)n(Cc2ccc(OC)cc2)c2nc3ccccc3nc12 ?
inactive

Record: CC(c1ccccc1)N(CCC(c1ccccc1)C1CCOC(C)(C)C1)C(=O)c1ccco1 (stereo unspecified)
active

And the next one, COc1ccc(Nc2nc(-c3ccccc3)c3ccccc3n2)cc1 ?
active

Field entry: CC(C)(C)c1ccc(CNc2ccc([N+](=O)[O-])cn2)cc1
inactive

Likewise for CCc1cccc(CC)c1NC(=S)NCCc1c(C)[nH]c2ccc(C)cc12 ?
active

What about Cc1cccc(C(=O)NC(C(=O)Nc2nc(-c3ccccn3)cs2)C(C)C)c1 (stereo unspecified) ?
active

Moving on to COCCN(C(=S)Nc1c(C)cc(C)cc1C)C(C)c1cccs1 (stereo unspecified)
active

Lookup Cc1cc(C)n(CC(O)Cn2c3ccc(Cl)cc3c3cc(Cl)ccc32)c(=O)n1 (stereo unspecified)
active

Now the compound COc1cccc(C2CN(c3ccc(F)cc3F)N=C2c2cccs2)c1OC (stereo unspecified)
active

Same question for CC(C)(O)[C@H]1O[C@H]2CC[C@@]3(C)[C@@](O)(CC[C@H]4Cc5c([nH]c6ccccc56)[C@@]43C)C2=CC1=O please.
active

Lookup CCn1ccnc1CN1CCc2c([nH]c3ccccc23)C1CC(C)C (stereo unspecified)
inactive

====

- experiment_summary: blockers of mitochondrial fusion, WT vs mutant – cell-based, chemical genetic, wild-type and mutant, confirmation (AID 1361)
- condition_parameters: Cell-based mitochondrial fusion phenotype, imaging, WT cells
Activity calls are given as the source filed them. No rule for the calls is given here.
// one of active, inactive, no free text

I would be grateful if you could indicate the recorded call for COC(=O)Cc1ccc(N(Cc2ccccc2F)S(=O)(=O)c2ccc(C)cc2)cc1 .
active

Then what about the compound O=C(N1CCOCC1)N1CCN(C(c2ccccc2)c2ccccc2)CC1 ?
inactive

Cool, now O=C(c1ccc2c(c1)OCO2)N(Cc1ccco1)C1(C(=O)NC2CCCCC2)CCCCC1
inactive

Next compound: COCCN1C(=O)/C(=C/c2ccc(OCc3ccc(C(=O)O)cc3)c(OC)c2)SC1=Nc1ccccc1
inactive

Another compound to look at: N#CC1=C(N)NC(SCC(=O)c2ccc(Br)cc2)=C(C#N)C12CCCCC2
active

Follow-up entry: CC1=CN2C(=N)/C(=C/c3ccc(Sc4ccc(C)cc4)o3)C(=O)N=C2S1
active

Likewise for C=C(C)C1CC=C(C)/C(=N\NC(=S)Nc2ccc(C)cc2)C1 (stereo unspecified) ?
inactive

Note, next up: Cc1oc(-c2ccccc2)[n+]([O-])c1C
inactive

Then what about the compound CC(C)(C)[C@H]1C=C(C(=O)N2CCN(Cc3ccc4c(c3)OCO4)CC2)O[C@@H](OCc2ccc(CO)cc2)C1 ?
active

And what about the compound O=C(COc1ccccc1-c1ccccc1)NCc1cccc(Cl)c1 ?
active

What about CCCOc1ccc(C2C(C(=O)c3ccco3)=C(O)C(=O)N2CCN2CCOCC2)cc1OC (stereo unspecified) ?
inactive

Record: CCCCN1C(=O)NC(=O)C2(Cc3c(nc4c(C)cccn4c3=O)N3CCc4ccccc4C32)C1=O (stereo unspecified)
active

How about CCC(=O)Nc1ccc(Br)c(Cl)c1 ?
inactive

Same thing, different compound: COc1ccc(OC)c2c(N)c(C#N)c(C(F)(F)C(F)(F)F)nc12
inactive

Then this compound: COc1ccc(/C=N/N(Cc2ccccc2)c2ccccc2)cc1O
active

Would you mind doing COc1ccc(/C=C/C(=O)N2CCN(c3ccccn3)CC2)c2ccccc12 as well?
active

Ok, now Cc1nc2cc(C(=O)OCC(=O)NC34CC5CC(CC(C5)C3)C4)ccc2n1-c1ccccc1
active

Do the same for CCOC(=O)c1ccc2c(c1)n(CC)c(/C=C/N(C)c1ccccc1)[n+]2CC please
inactive

Let us now turn to COCCNC(=O)c1cccc(Nc2nc(-c3ccccc3)c3cc(Cl)ccc3n2)c1
active

Try this compound next: COc1ccc(OC)c(-c2cc(C3CCN(c4cc(Cl)nc(N)n4)CC3)[nH]n2)c1
inactive

What do you have for Cc1oc(-c2ccccc2)nc1CN1C(=O)CN=C(c2ccccc2)c2ccccc21 ?
inactive

====

- experiment_summary: blockers of mitochondrial fusion, WT vs mutant – cell-based, chemical genetic, wild-type and mutant, confirmation (AID 1361)
- condition_parameters: Cell-based mitochondrial fusion phenotype, imaging, WT cells
Calls of active or inactive are those of the source. No rule for the calls is given here.
Respond only with the outcome that fits, drawn from true (1) = active, false (0) = inactive

Assay result, entry CC(C)c1ccc(OCc2nc(-c3ccccn3)no2)c(Br)c1 — outcome?
true (1)

Another molecule: COC(=O)C1=C(CSc2nc3ccccc3o2)NC(=O)NC1c1cc(C)ccc1C (stereo not given)
false (0)

Same again, this time with CCc1ccc(OCC2c3cc(OC)c(OC)cc3CCN2C(=S)NC)cc1 (stereo not given)
false (0)

Let us now turn to Cc1ccc(NC(=S)N(CCCN2CCCC2)Cc2cccn2Cc2ccc(Cl)cc2)cc1
true (1)

Try COc1ccc(O[C@H]2C=C[C@@H](c3ccccc3)O[C@@H]2COC(=O)CC/C(C)=N/O[C@@H](C)CN2CCCCc3nc(C)c(C)cc32)cc1 next.
true (1)

Same for Cn1c(Cc2ccccc2)nnc1SCC(=O)c1ccc(Br)s1
false (0)

Repeat with O=C(Nc1cc(Cl)ccc1Oc1ccccc1)c1ccc(F)cc1
true (1)

And for COc1ccc(NC(=O)c2ccc(-c3ccccc3C(F)(F)F)o2)cc1 ?
true (1)

Would you mind doing Cc1cc(NC(=S)N(Cc2ccc(Br)cc2)Cc2ccc(C(=O)O)cc2)ccc1Cl as well?
true (1)

Likewise for COc1ccc(NC(=O)c2oc3ccccc3c2NC(=O)COc2ccccc2OC)c(OC)c1 ?
false (0)

====

- experiment_summary: blockers of mitochondrial fusion, WT vs mutant – cell-based, chemical genetic, wild-type and mutant, confirmation (AID 1361)
- condition_parameters: Cell-based mitochondrial fusion phenotype, imaging, WT cells
The source made the active and inactive calls. The rule behind the calls is not given here.
Give your call using only these classes: T (active), F (inactive)

Test call, this molecule: COc1ccc(NC(=S)Nc2ccc(OCc3ccccc3)cc2)c(OC)c1
T

What about this molecule? Cc1ccc(S(=O)(=O)c2c(C)nn(C(C)(C)C)c2OC(=O)CC(C)C)cc1
T

Now give it for CCN(c1ccc2c(c1)OCO2)S(=O)(=O)c1cc(Br)cc2c1N(C(=O)C1CC1)CC2 too.
T

// same read-out, input: CCn1cc(C(=O)N2CCc3ccccc32)c(=O)c2cc(S(=O)(=O)N(C)C3CCCCC3)ccc21
F

Ok, now Cc1ccc2cc(CN(C(=O)c3ccco3)c3ccccc3C)c(=O)[nH]c2c1
F

Note, next up: CCC(C)c1ccccc1NC(=O)COC(=O)c1ccc2[nH]c3c(c2c1)CCCC3 (centres undefined)
T

// same read-out, input: Cc1sc(NC(=O)CSc2nnnn2C2CCCCC2)c(C#N)c1C
F

# repeat for C/C(CCN1CCc2nc(-c3ccccc3)c(-c3ccccc3)cc2C1)=N\OC[C@@H](C)[C@H](OCc1ccccc1)C(C)C
F

Let us now turn to CCOC(=O)c1c(N)sc(C(O)(C(F)(F)F)C(F)(F)F)c1-c1ccccc1
T

Taken from PubChem BioAssay AID1361.
